Every entry's value here was drawn from patent US10597388B2.

tested on: blackgrass (Alopecurus myosuroides); assay: Test A greenhouse herbicide test, postemergence; format: in vivo; conditions: 500 g ai/ha, 0 to 100 scale, 0 is no effect, 100 is complete control

compound: CCc1ccc2ccc(C)cc2c1-c1c(O)c(C)nn(C)c1=O [Compound 103]
Blackgrass plant response rating: 90
--
compound: Cc1cc(C)c2c(-c3c(OC(=O)C(C)(C)C)c(C)nn(C)c3=O)c(C)sc2c1 [Compound 45]
Blackgrass plant response rating: 0
--
compound: COc1nn(C)c(=O)c(-c2c(C)sc3ccccc23)c1O [Compound 33]
Blackgrass plant response rating: 40
--
compound: Cc1nn(C)c(=O)c(-c2c(C)sc3ccc(Cl)cc23)c1O [Compound 104]
Blackgrass plant response rating: 90
--
compound: CCC(=O)Oc1c(C)nn(C)c(=O)c1-c1c(C)sc2c(C)cc(C)cc12 [Compound 28]
Blackgrass plant response rating: 90
--
compound: Cc1cc(C)c2ccccc2c1-c1c(O)cnn(C)c1=O [Compound 51]
Blackgrass plant response rating: 60
--
compound: Cc1cc(C)c2sc(C)c(-c3c(OC(=O)OCCCl)c(C)nn(C)c3=O)c2c1 [Compound 85]
Blackgrass plant response rating: 90
--
compound: CCCC(=O)Oc1c(C)nn(C)c(=O)c1-c1c(C)sc2c(C)cc(C)cc12 [Compound 106]
Blackgrass plant response rating: 90
--
compound: COc1nn(C)c(=O)c(-c2cccc3ccccc23)c1O [Compound 55]
Blackgrass plant response rating: 80
